Some molecules, each annotated with its measured PPB rat (% bound).
Assay Explanation: plasma protein binding by ultracentrifugation, rat plasma
Assay type: in vitro ADME
Measured Quantity: PPB rat (% bound)

                                   molecule  measured_quantity  result_number
0  Cc1cc(NC2Cc3cc(F)c(F)cc3C2)n2nc(C(C)(F)F)nc2n1 [Compound 35]  PPB rat (% bound)           94.2
1  Cc1cc(NC2CCc3cc(Cl)ccc3C2)n2nc(C(C)(F)F)nc2n1 (centres unmarked) [Compound 7]  PPB rat (% bound)           99.2
2  Cc1cc(N[C@H]2CCc3ccc(Cl)cc3C2)n2nc(C(C)(F)F)nc2n1 [Compound 9]  PPB rat (% bound)           96.4
3  Cc1cc(NC2CCc3ccc(Br)cc3C2)n2nc(C(C)(F)F)nc2n1 (centres unmarked) [Compound 13]  PPB rat (% bound)           97.2
4  Cc1cc(NC2CCc3cc(Br)ccc3C2)n2nc(C(C)(F)F)nc2n1 (centres unmarked) [Compound 11]  PPB rat (% bound)           99.7

----------
Target Or Test System: UniProt Q02127
Sequence (Q02127 31-395 limits assumed): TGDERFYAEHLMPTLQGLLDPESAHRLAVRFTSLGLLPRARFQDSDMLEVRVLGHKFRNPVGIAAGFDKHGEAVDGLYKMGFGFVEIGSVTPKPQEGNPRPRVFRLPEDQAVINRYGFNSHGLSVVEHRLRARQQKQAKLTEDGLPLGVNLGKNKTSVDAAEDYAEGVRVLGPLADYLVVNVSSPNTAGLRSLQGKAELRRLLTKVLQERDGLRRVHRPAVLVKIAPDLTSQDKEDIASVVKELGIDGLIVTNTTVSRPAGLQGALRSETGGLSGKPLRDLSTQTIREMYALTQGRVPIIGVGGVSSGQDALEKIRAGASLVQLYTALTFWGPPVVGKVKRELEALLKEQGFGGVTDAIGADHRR
Assay Explanation: biochemical
pIC50: −log10 of the molar value.
Measured Quantity: pIC50

                                   molecule  measured_quantity  result
0  Cc1cc(NC2CCc3ccc(Br)cc3C2)n2nc(C(C)(F)F)nc2n1 (stereo not shown)              pIC50  < 4.00

----------
Assay Explanation: plasma protein binding by ultracentrifugation, human plasma
Format: in vitro ADME
Measured Quantity: PPB human (% bound)

>>> print(df.to_string())
                                   compound  reading_unit  result_number
0  Cc1cc(NC2Cc3cc(F)c(F)cc3C2)n2nc(C(C)(F)F)nc2n1 [Compound 35]       % bound           93.4
1  Cc1cc(NC2CCc3ccc(Br)cc3C2)n2nc(C(C)(F)F)nc2n1 (centres unmarked) [Compound 13]       % bound           96.3
2  Cc1cc(N[C@H]2CCc3ccc(Cl)cc3C2)n2nc(C(C)(F)F)nc2n1 [Compound 9]       % bound           96.7
3  Cc1cc(NC2CCc3cc(Cl)ccc3C2)n2nc(C(C)(F)F)nc2n1 (centres unmarked) [Compound 7]       % bound           98.8
4  Cc1cc(NC2CCc3cc(Br)ccc3C2)n2nc(C(C)(F)F)nc2n1 (centres unmarked) [Compound 11]       % bound           99.0

----------
Assay Explanation: kinetic aqueous solubility by nephelometry
Format: physicochemical
Condition Context: pH 6.5 phosphate buffer, pH 6.5
Let's look at some compounds and their measured solubility kinetic at 30 min.
Measured Quantity: solubility kinetic at 30 min

>>> df
                                   compound             result
0  Cc1cc(NC2CCc3cc(Br)ccc3C2)n2nc(C(C)(F)F)nc2n1 (centres unmarked)   3.1 to 6.3 µg/mL
1  Cc1cc(NC2Cc3c(F)ccc(F)c3C2)n2nc(C(C)(F)F)nc2n1  6.3 to 12.5 µg/mL
2  Cc1cc(NC2Cc3ccc(Cl)cc3C2)n2nc(C(C)(F)F)nc2n1 (centres unmarked)  6.3 to 12.5 µg/mL
3  Cc1cc(NC2CCc3ccc(Br)cc3C2)n2nc(C(C)(F)F)nc2n1 (centres unmarked)   1.6 to 3.1 µg/mL
4  COc1ccc2c(c1)CC(Nc1cc(C)nc3nc(C(C)(F)F)nn13)CC2 (centres unmarked)   12.5 to 25 µg/mL

----------
Target Or Test System: UniProtKB Q02127
Condition Context: read-out: hDHODH IC50
Measured Quantity: IC50

>>> print(df.to_string())
                                   molecule  target_or_test_system  measured_quantity    result
0  Cc1cc(NC2CCc3ccc(Br)cc3C2)n2nc(C(C)(F)F)nc2n1 (stereo not shown)       UniProtKB Q02127               IC50  > 100 µM

----------
Target Or Test System: UniProt Q02127
Condition Context: read-out: DHODH IC50 human; Table 2; for 1 four independent replicates
pIC50: −log10 of the molar value.
Measured Quantity: pIC50

>>> print(df.to_string())
                                   molecule  measured_quantity  result
0  Cc1cc(NC2CCc3ccc(Br)cc3C2)n2nc(C(C)(F)F)nc2n1 (stereo not shown)              pIC50  < 4.00

----------
Target Or Test System: PvDHODH (Plasmodium vivax, UniProt A5K1N1)
Sequence (A5K1N1 160-572): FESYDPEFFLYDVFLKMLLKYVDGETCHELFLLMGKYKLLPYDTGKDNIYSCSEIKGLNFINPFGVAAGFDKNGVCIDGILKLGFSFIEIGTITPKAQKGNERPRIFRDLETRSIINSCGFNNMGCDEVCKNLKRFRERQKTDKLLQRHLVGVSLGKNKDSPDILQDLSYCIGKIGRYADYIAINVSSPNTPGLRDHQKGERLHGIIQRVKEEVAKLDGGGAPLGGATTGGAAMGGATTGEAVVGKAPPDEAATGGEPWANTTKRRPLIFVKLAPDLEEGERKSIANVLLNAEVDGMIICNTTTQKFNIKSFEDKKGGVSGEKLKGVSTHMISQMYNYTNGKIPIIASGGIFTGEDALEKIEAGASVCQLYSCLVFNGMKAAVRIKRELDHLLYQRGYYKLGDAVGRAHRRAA
Condition Context: PvDHODH IC50 higher than PfDHODH IC50
Measured Quantity: difference of IC50 P. vivax DHODH versus PfDHODH

>>> df
                                   molecule      result
0  Cc1cc(NC2CCc3cc(Br)ccc3C2)n2nc(C(C)(F)F)nc2n1 (centres unmarked)    5–8 fold
1  Cc1cc(NC2CCc3cc(Cl)ccc3C2)n2nc(C(C)(F)F)nc2n1 (centres unmarked)    5–8 fold
2  Cc1cc(NC2CCc3ccc(Br)cc3C2)n2nc(C(C)(F)F)nc2n1 (centres unmarked)  1.5–3 fold
3  Cc1cc(N[C@H]2CCc3ccc(Cl)cc3C2)n2nc(C(C)(F)F)nc2n1  1.5–3 fold
4  Cc1cc(NC2Cc3cc(F)c(F)cc3C2)n2nc(C(C)(F)F)nc2n1      7 fold
